# credit: ChEMBL document CHEMBL3507680

Experiment: Human HepG2 cell viability assay in 384 well format
Assay type: toxicity, cell-based
Design: dose 125 nL, time 70.5 hour; concentration not given beside the values
Conditions: HepG2 cells, read-out: Inhibition
Endpoint: cytotoxicity at 70.5 h (%)
Unit % implied. Number only.

### Prompt Could you please provide reported cytotoxicity at 70.5 h for Cc1cc2c(=O)n(CCOCCO)cnc2s1 ? Thanks!
### Response -5.77

### Prompt Could you please provide reported cytotoxicity at 70.5 h for O=S(=O)(C1CC1)N1CCO[C@H]2[C@@H](Oc3ncccc3F)CC[C@@H]21 ? Thanks!
### Response -8.02

### Prompt Could you please provide reported cytotoxicity at 70.5 h for CC(C)N(C)CCCNC(=O)c1cnc(-c2ccccc2)nc1 ? Thanks!
### Response 2.52

### Prompt Could you please provide reported cytotoxicity at 70.5 h for CCN1CCC2(CC1)OCCN2C(=O)c1cc(Cl)c(OC)c(Cl)c1 ? Thanks!
### Response 8.67

### Prompt Could you please provide reported cytotoxicity at 70.5 h for CCn1cnnc1CN(C)C(=O)C1CCC(=O)N(CC2CCCCC2)C1 (stereo unspecified) ? Thanks!
### Response -6.42

### Prompt Could you please provide reported cytotoxicity at 70.5 h for NC(=O)c1c(-c2ccc(Cl)cc2Cl)csc1NC(=O)CCCC(=O)O ? Thanks!
### Response 4.32

====

Test: Human HepG2 cell viability assay in 384 well format
Type: toxicity, cell-based
Set-up: dose 125 nL, time 70.5 hour; concentration not given beside the values
Conditions: HepG2 cells, read-out: Inhibition
Could you please report measured cytotoxicity at 70.5 h for the items listed next?
Unit % implied. Number only.

### Prompt Could you please provide reported cytotoxicity at 70.5 h for COc1cc2c(cc1OC)CN(C(=O)Cn1nc(C)cc1C)CC2 ? Thanks!
### Response -5.35

### Prompt Could you please provide reported cytotoxicity at 70.5 h for CCOc1cc(CNCCCn2ccnc2)cc(Cl)c1OC ? Thanks!
### Response 3.61

### Prompt Could you please provide reported cytotoxicity at 70.5 h for Cn1cc(C(=O)NCc2ccc(N3CCCC3)nc2)ccc1=O ? Thanks!
### Response -8.81

### Prompt Could you please provide reported cytotoxicity at 70.5 h for c1nc(NCC2(N3CCOCC3)CCSC2)c2sccc2n1 (stereo unspecified) ? Thanks!
### Response -4.54

### Prompt Could you please provide reported cytotoxicity at 70.5 h for COCC1CN(C(=O)COc2ccccc2)Cc2cn(C)nc21 (stereo unspecified) ? Thanks!
### Response -18

### Prompt Could you please provide reported cytotoxicity at 70.5 h for O=C(c1ccccc1C(F)(F)F)N1CC[C@@H](N2CCC(O)CC2)[C@H](O)C1 ? Thanks!
### Response -1.82

### Prompt Could you please provide reported cytotoxicity at 70.5 h for CC(C)Cc1cc(C(=O)NCc2nnc[nH]2)[nH]n1 ? Thanks!
### Response -13.4

### Prompt Could you please provide reported cytotoxicity at 70.5 h for Cc1nc(CN(C)C2CCN(Cc3cccc(F)c3)C2)no1 (stereo unspecified) ? Thanks!
### Response 1.26

### Prompt Could you please provide reported cytotoxicity at 70.5 h for CC(=O)NCc1ccc(C(=O)N2CCCC2c2cnn(C)c2)o1 (stereo unspecified) ? Thanks!
### Response -13.1

### Prompt Could you please provide reported cytotoxicity at 70.5 h for NC[C@H]1CC[C@H](C(NC(=O)c2ccccn2)c2ccccn2)CC1 (stereo partly specified) ? Thanks!
### Response -4.69

### Prompt Could you please provide reported cytotoxicity at 70.5 h for O=C([C@H]1COC[C@H]2CN(C3CCCC3)C[C@H]21)N1CCCO1 ? Thanks!
### Response 41.4
